method: caspase-8 TRAIL sensitization, hit retest, confirmation, cell-based, NB7+caspase-8, with/without TRAIL, luminescence panel (AID 651596)
assay.setup: NB7 neuroblastoma + caspase-8, without TRAIL, luminescence viability, without TRAIL, mean of runs, at 10 µM
# note: boundary value 70% maps to false (0); activity below it maps to true (1)

>>> df
                                   compound  assigned_class
0  Cc1ccc(-c2nn3c(C)nnc3c3ccccc23)cc1S(=O)(=O)NCc1ccccc1        true (1)
1           C/C(=N\Nc1cccc2cccnc12)c1ccccn1        true (1)
2  CC(=O)Nc1sc(C)c(C)c1C(=O)OCC(=O)N(CC(C)C)c1c(N)n(Cc2ccccc2)c(=O)[nH]c1=O       false (0)
3  CC1CCC(C(C)C)C(OC(=O)Cn2c(-c3ccccc3)[n+](C)c3ccccc32)C1 (configuration not stated)        true (1)
4          O=C(Nc1ccc(N2CCOCC2)cc1)c1cnccn1       false (0)

Query compound follows.
**Q:** Input O=C(Nc1ccc(Br)cc1F)c1ccc2c(c1)OCCO2 ; condition: activity strictly below 70%. Does it hold?
**A:** true (1)

---

I'd be grateful if you could share measured inhibition for these entries.
test.target: PEG-3 (UniProt Q6IN02)
Sequence (Q6IN02 whole entry, looked up): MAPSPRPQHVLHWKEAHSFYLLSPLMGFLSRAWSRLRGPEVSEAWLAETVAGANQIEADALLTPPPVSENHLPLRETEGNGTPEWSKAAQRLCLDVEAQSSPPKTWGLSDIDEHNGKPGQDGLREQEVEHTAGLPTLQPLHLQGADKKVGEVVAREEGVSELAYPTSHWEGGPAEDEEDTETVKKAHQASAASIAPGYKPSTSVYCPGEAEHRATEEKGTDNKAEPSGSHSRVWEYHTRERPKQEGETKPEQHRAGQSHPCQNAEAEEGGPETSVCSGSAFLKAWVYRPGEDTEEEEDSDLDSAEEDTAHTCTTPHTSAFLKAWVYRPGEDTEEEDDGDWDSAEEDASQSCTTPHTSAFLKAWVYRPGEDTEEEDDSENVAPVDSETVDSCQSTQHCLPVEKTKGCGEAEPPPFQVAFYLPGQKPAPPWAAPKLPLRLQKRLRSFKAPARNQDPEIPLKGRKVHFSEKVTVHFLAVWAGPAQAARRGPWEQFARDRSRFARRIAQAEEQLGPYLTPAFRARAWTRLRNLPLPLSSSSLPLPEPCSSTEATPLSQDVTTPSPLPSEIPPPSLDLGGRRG
method: Peg3 promoter luciferase inhibitors, potency, dose response, cell-based, HeLa, CREF/GAPDH counter-screen panel (AID 624167)
assay.setup: CREF/GAPDH counter-screens; HeLa PEG-Prom luciferase reporter, overnight, run 2, dose range 1, at 100 µM (top of the series) unless noted

For orientation, consider the following solved cases.
>>> df
                                   compound  observed_result
0  CC(=O)Nc1cccc(-c2ccnc3c2CC(C)(C(=O)Nc2cccc(C(F)(F)F)c2)O3)c1 (stereo not given)            88.4%
1  CCN(CC)S(=O)(=O)c1cccc(C(=O)N/N=C(\C)c2ccc(O)cc2O)c1            69.6%
2  O=S(=O)(/N=C(/Sc1ccccc1)c1ccccc1)c1ccccc1             101%
3  Cc1nc(-c2ccc(F)cc2)c(CC(=O)N(C)CC(=O)Nc2ccc(Cl)c(C(F)(F)F)c2)s1             102%
4  Cc1cc(Br)ccc1NC(=O)CNC(=O)Cn1ncc(Cl)c(Cl)c1=O            94.5%
5        c1cc2c(cc1C1=NNC(=NC3CC3)SC1)OCCO2              99%

Dear colleague, could you send me inhibition for each of the items below? Thanks.
1. Cc1ccc(C2(CCNCc3ccc(N(C)C)cc3)CCOC(C(C)C)C2)cc1 (stereo not given)
2. O=C(Nc1cccc(C(=O)O)c1)Nc1ccc2c(c1)OCO2
3. O=C1C(Cl)=C(Nc2ccccc2)C(=O)c2ccccc21
4. Cc1c(C)c2ccc(OCC(=O)Nc3ccccn3)c(C)c2oc1=O

**A:**
101%
94.8%
101%
93.2%

---

test.target: Tumor necrosis factor receptor superfamily member 10B (Homo sapiens)
method: caspase-8 TRAIL sensitization, hit retest, confirmation, cell-based, NB7+caspase-8, with/without TRAIL, luminescence panel (AID 651596)
assay.setup: NB7 neuroblastoma + caspase-8, TRAIL sensitization, luminescence viability, with TRAIL, mean of runs, at 10 µM, stronger effect = higher value
reported.endpoint: activity (%)
One number for each entry, in %.

In [3]: df
Out[3]:
                                   molecule                               test_target  units_symbol  observed_result
0         O=C(Nc1ccc(Cl)cc1)Nc1ccccc1C(=O)O  Tumor necrosis factor receptor superfamily member 10B (Homo sapiens)             %             58.3
1  CCCc1cc(=O)[nH]c(SCC(=O)c2c(N)n(CC(C)C)c(=O)n(C)c2=O)n1  Tumor necrosis factor receptor superfamily member 10B (Homo sapiens)             %             80.5
2  Cc1onc(-c2c(Cl)cccc2Cl)c1C(=O)ONC(=O)c1ccccc1  Tumor necrosis factor receptor superfamily member 10B (Homo sapiens)             %             72.9
3  CCN1CCN(CCNC(=O)c2ccc3c(c2)N(Cc2ccc(F)cc2)C(=O)/C(=C/c2ccccc2)S3)CC1  Tumor necrosis factor receptor superfamily member 10B (Homo sapiens)             %             53.4
4           O=C(Nc1nsc(-c2ccccc2)n1)c1cccs1  Tumor necrosis factor receptor superfamily member 10B (Homo sapiens)             %             56.6

State recorded activity for all listed molecules.
1. CC1Oc2ccccc2C=C1/C=N/NC(=O)c1ccccc1O (configuration not stated)
2. COC(=O)c1cc(OCC(=O)Nc2ccc3c(c2)CCC3)cc(C(=O)OC)c1
3. C=CCOC(=O)c1sc(NC(=O)c2ccco2)nc1C
4. COc1cccc(CSc2nc3ccncc3[nH]2)c1

**A:**
1: 46.1; 2: -14.7; 3: 39.1; 4: 87.7

Kindly give each listed record's activity.
1. COC(=O)c1nc(NC(=S)NC(=O)c2cccs2)sc1C
2. Nc1c(N(C(=O)Nc2ccc(Cl)c(Cl)c2)C2CCCC2)c(=O)[nH]c(=O)n1Cc1ccccc1
3. O=C(CSC(=S)N1CCCCC1)c1ccccc1
4. O=C(COc1ccc(/C=N/NC(=O)c2cc3ccccc3o2)cc1Br)Nc1ccccc1

**A:**
1. 53.8
2. 46.5
3. 50.8
4. 93

Quick batch: activity for everything below.
1. C[C@H](NC(=O)c1ncn2c1c(=O)[nH]c1ccc(Br)cc12)c1ccccc1
2. CN1CCN(c2nc(-c3ccc(C(C)(C)C)cc3)nc3ccccc23)CC1
3. CC(=O)Nc1ccc(NC2=Nc3ccccc3N3C2=Nc2c(c(C)nn2-c2ccccc2)C3c2ccccc2)cc1 (configuration not stated)
4. Cc1nc(N)nc(N)c1/C=C/C(C)(C)c1ccc(Cl)cc1

**A:**
1. 27.2
2. 67.9
3. 89.4
4. 54.5

For the 2 molecules below, give their activity values.
1. Nc1nc(N)c2cc(S(=O)(=O)c3ccc4ccccc4c3)ccc2n1
2. FC(F)(F)c1cc(Cl)c2nc(-c3ccccc3)cn2c1

**A:**
[64.9, 65]

---

Kindly state inhibition for each of the entries shown.
test.target: PEG-3 (UniProt Q6IN02)
method: Peg3 promoter luciferase inhibitors, potency, dose response, cell-based, HeLa, CREF/GAPDH counter-screen panel (AID 624167)
assay.setup: CREF/GAPDH counter-screens; HeLa PEG-Prom luciferase reporter, overnight, run 2, dose range 1, at 100 µM (top of the series) unless noted

                                   compound  reported_endpoint  observed_result
0  CC(=O)Nc1ccc(S(=O)(=O)N(Cc2ccco2)Cc2cc3ccccc3[nH]c2=O)cc1         inhibition            71.7%

List inhibition for every entry below, keeping the order given.
1. COc1cccc(Nc2nc(C(N)Cc3ccccc3)cs2)n1 (stereo not drawn)
2. CCC1(c2ccccc2)NC(=O)N(CC(=O)Nc2cc(S(=O)(=O)N3CCCCCC3)ccc2OC)C1=O (stereo not drawn)

**A:**
1. 99.1%
2. 61%

Field: inhibition. Fill in for each record below.
1. Cc1cc(C(=O)COC(=O)c2ccccc2O)c(C)n1Cc1cccs1
2. CC(C)n1nc(C(=O)Oc2cc(Cl)ccc2Cl)c2ccccc2c1=O
3. Cc1cccc(OCC(=O)NCC(=O)N/N=C/c2cc(Br)cc(Br)c2O)c1
4. Cc1noc(-c2ccc(Cl)cc2)c1C(=O)O/N=C(\N)c1ccc(C(C)(C)C)cc1
5. O=C1CCCCC1Sc1nnc(-c2ccc3c(c2)OCO3)o1 (stereo not drawn)

**A:**
1. 94.8%
2. 97.5%
3. 86.2%
4. 101%
5. 95%

// input: 2 compounds below; output: inhibition for each
1. CCn1nc(C)cc1-c1nnc(Sc2ncc([N+](=O)[O-])s2)n1C
2. Cc1cccc(C)c1NC(=O)c1nc(S(=O)(=O)Cc2ccccc2)ncc1Cl

**A:**
1: 101%; 2: 101%

Look up inhibition for the entries below, preserving their order.
1. Fc1ccc(-c2nnc(NC3=NCCCCC3)o2)cc1
2. CCC1CCCCN1S(=O)(=O)c1ccc(C(=O)N(CCCN(C)C)c2nc3cc4c(cc3s2)OCO4)cc1 (stereo not drawn)
3. COc1ccc(/C=C2\SC(=S)N(CCCC(=O)NNC(=O)c3ccccc3O)C2=O)cc1
4. COc1cc(Nc2c3ccccc3nc3ccccc23)cc(OC)c1OC
5. NC(c1csc(Nc2nccc(C(F)(F)F)n2)n1)C1CCCCC1 (stereo not drawn)
6. O=C(/C=C/c1ccccc1)Nc1cccc(C(=O)O)c1

**A:**
["97.3%", "96.1%", "81.1%", "102%", "99.1%", "97.4%"]

Would you be so kind as to report inhibition for each listed record?
1. Cc1cnc(NC(=O)C2CC(=O)N(c3cccc(Cl)c3)C2)s1 (stereo not drawn)
2. C/C(=N\NC(=O)c1cc(C2CC2)nc2ccccc12)c1ccc(O)cc1O
3. Cc1ccsc1/C=N/Nc1cccc(C(=O)O)c1
4. Cc1cnc(NC(=O)c2ccc3c(c2)OCCO3)s1
5. CN1OC[C@@H]2CN(S(=O)(=O)c3cccc(C(F)(F)F)c3)[C@H](c3ccc(-c4cc5ccccc5o4)cc3)C[C@@H]21
6. N#Cc1cc2c(nc1SC1CC(=O)N(c3ccccc3)C1=O)CCC2 (stereo not drawn)

**A:**
["87.8%", "61.4%", "88.9%", "97%", "73.1%", "25.6%"]

Provide reported inhibition for each item, in the same order as listed.
1. Cc1cc(C)c(C)c(S(=O)(=O)N2CCN(C(=O)c3cc(=O)[nH]c4ccccc34)CC2)c1C
2. C=CCn1c(C)cc(C2=NNC(=NCC)SC2)c1C
3. COc1ccccc1NC(=S)NC1CCCCCCCCCCC1
4. O=C1NC(Cc2ccc(O)cc2)c2nc3ccc(F)cc3c(=O)n2-c2cc3ccccc3cc21 (stereo not drawn)

**A:**
1. 83.8%
2. 98.1%
3. 102% [run 2, dose range 1, at 50 µM]
4. 95.8%

I'm hoping you can list inhibition for every compound here, please.
1. CCCN(CC(=O)Nc1cc(Cl)cc(Cl)c1)CC(=O)Nc1ccc(F)c(F)c1F
2. O=C(/C=C/c1ccccc1)NC(NC(=S)Nc1cccc(Cl)c1)C(Cl)(Cl)Cl (stereo not drawn)
3. CCN1CCN(c2ncc(C(=O)Nc3cc(Cl)ccc3OC)c3ccccc23)CC1
4. O=C(NC1CCCCC1)Sc1ccc(Cl)cc1
5. Cc1ccc(S(=O)(=O)N(C)C)cc1NC(=O)c1cncc(Br)c1

**A:**
1: 99%; 2: 99.4%; 3: 98.7%; 4: 101%; 5: 83.7%

For each of the items listed, what is its inhibition?
1. CN(C)c1ccc(/C=C/c2nc3ccccc3s2)cc1
2. COc1ccccc1C1c2ccc3ccccc3c2Oc2ncn(CCCO)c(=N)c21 (stereo not drawn)
3. COc1ccc(NC(=O)c2cc(-c3ccccn3)nc3ccccc23)cc1S(=O)(=O)N(C)C

**A:**
89.3%
98.3%
61.2%
